# Tgt: calpain I (Sus scrofa)
# Sequence (P35750 1-714): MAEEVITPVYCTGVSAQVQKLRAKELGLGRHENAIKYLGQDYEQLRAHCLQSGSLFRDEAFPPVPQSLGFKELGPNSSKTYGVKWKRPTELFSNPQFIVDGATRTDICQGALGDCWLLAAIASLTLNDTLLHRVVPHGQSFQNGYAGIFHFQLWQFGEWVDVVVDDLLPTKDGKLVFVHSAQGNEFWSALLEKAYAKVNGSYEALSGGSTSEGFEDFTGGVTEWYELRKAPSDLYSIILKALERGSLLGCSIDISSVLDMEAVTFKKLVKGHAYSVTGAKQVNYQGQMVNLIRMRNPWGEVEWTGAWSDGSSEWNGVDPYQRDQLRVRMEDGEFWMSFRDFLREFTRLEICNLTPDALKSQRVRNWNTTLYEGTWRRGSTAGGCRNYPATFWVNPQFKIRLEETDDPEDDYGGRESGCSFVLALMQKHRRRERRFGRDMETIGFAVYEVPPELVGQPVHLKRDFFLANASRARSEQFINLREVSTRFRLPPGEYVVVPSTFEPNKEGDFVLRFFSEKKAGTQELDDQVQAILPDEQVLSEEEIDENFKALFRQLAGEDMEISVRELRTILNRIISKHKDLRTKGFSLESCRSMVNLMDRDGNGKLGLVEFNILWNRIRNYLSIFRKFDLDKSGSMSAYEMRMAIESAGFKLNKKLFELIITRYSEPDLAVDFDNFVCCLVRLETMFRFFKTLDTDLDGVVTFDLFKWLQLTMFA
# Sequence (P04574 1-266 partner): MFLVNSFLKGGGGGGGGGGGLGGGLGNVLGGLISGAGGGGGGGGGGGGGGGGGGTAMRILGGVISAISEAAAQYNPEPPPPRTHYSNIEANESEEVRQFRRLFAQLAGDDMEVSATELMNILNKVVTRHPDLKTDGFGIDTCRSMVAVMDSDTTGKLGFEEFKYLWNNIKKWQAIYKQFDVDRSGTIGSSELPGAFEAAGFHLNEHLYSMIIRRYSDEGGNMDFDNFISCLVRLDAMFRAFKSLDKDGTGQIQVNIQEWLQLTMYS
pIC50: −log10 of the molar value.
Property Measured: pIC50

- COC(=O)[C@@H](NC(=O)c1ccccc1-c1ccccc1C(=S)N[C@H](C(=O)OC)C(C)C)C(C)C: 10.28
- COC(=O)[C@@H](NC(=S)c1ccccc1-c1ccccc1C(=S)N[C@H](C(=O)OC)C(C)C)C(C)C: 7.15
- COC(=O)[C@H](Cc1c[nH]c2ccccc12)NC(=O)c1ccccc1-c1ccccc1C(=S)N[C@@H](Cc1c[nH]c2ccccc12)C(=O)OC: 7.16
- COC(=O)[C@H](Cc1ccc(O)cc1)NC(=S)c1ccccc1-c1ccccc1C(=S)N[C@@H](Cc1ccc(O)cc1)C(=O)OC: 6.10
- COC(=O)[C@H](Cc1ccc(O)cc1)NC(=O)c1ccccc1-c1ccccc1C(=S)N[C@@H](Cc1ccc(O)cc1)C(=O)OC: 4.92
